- assay-notes: Clearance in fasted Beagle dog at 0.25 mg/kg, iv and 0.5 mg/kg, po
- Assay type: ADME, organism-based, Canis lupus familiaris
- cond: in vivo
This listing pairs compounds with measured clearance.
Lab book: enter the figure in mL/min/kg, no units written.

O=C(O)CCNC(=O)c1ccc(CN(c2ccc(Cl)cc2)c2nc(-c3ccc(OC(F)(F)F)cc3)cs2)cc1 has a reported clearance of 4.64

* * *

- assay-notes: Cmax in fasted Beagle dog at 0.25 mg/kg, iv and 0.5 mg/kg, po
- Format: ADME, organism-based, Canis lupus familiaris
- cond: in vivo
hey, just use 1 if measured Cmax is less than 0.6 µg/mL, otherwise -1

O=C(O)CCNC(=O)c1ccc(CN(c2ccc(Cl)cc2)c2nc(-c3ccc(OC(F)(F)F)cc3)cs2)cc1
1
O=C(O)CCNC(=O)c1ccc(CN(c2ccc(Cl)cc2)c2nc(-c3ccc(C(F)(F)F)cc3)cs2)cc1
1
O=C(O)CCNC(=O)c1ccc(CN(c2ccc3c(c2)CCCC3)c2nc(-c3ccc(Cl)c(Cl)c3)cs2)cc1
-1
O=C(O)CCNC(=O)c1ccc(CN(c2ccc(C(F)(F)F)cc2)c2nc(-c3ccc(Cl)cc3)cs2)cc1
-1

INPUT: Strictly below 0.6 µg/mL in Cmax? O=C(O)CCNC(=O)c1ccc(CN(c2ccc(OC(F)(F)F)cc2)c2nc(-c3ccc(C(F)(F)F)cc3)cs2)cc1
OUTPUT: -1

* * *

- assay-notes: Cmax in fasted Sprague-Dawley rat at 1.60 mg/kg, iv and 3.25 mg/kg, po by HTLC-MS/MS analysis
- Format: ADME, organism-based
- cond: in vivo
quantity: Cmax (ng/mL)
Quick note: give the figure in ng/mL, leave out the unit.

Form field Cmax, entry O=C(O)CCNC(=O)c1ccc(CN(c2ccc(Cl)cc2)c2nc(-c3ccc(C(F)(F)F)cc3)cs2)cc1 : 216

* * *

- measured-on: Glucagon receptor (Homo sapiens, UniProt P47871)
- Sequence (P47871 whole entry): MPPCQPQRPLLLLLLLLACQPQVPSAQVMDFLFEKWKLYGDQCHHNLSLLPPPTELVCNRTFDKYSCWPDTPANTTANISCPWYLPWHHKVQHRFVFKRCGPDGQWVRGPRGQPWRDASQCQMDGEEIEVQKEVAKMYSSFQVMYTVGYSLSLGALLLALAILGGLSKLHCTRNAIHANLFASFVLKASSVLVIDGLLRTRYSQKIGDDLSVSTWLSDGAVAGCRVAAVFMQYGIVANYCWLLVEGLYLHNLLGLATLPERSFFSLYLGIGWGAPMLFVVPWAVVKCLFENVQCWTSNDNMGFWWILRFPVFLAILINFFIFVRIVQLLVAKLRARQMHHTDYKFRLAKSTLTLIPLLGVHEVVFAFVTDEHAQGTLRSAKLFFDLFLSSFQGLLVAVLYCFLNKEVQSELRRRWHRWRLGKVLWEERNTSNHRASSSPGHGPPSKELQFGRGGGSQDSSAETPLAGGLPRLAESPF
- assay-notes: Displacement of [125I]porcine glucagon from human recombinant glucagon receptor expressed in BHK cells by scintillation proximity assay
- Type: cell-based
Here the recorded IC50 is given for each entry.
Give just the number in nM; leave the unit off.

Cc1cc(N(Cc2ccc(C(=O)NCCC(=O)O)cc2)c2nc(-c3cc(C(F)(F)F)cc(C(F)(F)F)c3)cs2)ccc1C(C)C
131
O=C(O)CCNC(=O)c1ccc(CN(c2ccc3c(c2)Cc2ccccc2-3)c2nc(-c3ccc(OC(F)(F)F)cc3)cs2)cc1
50
O=C(O)CCNC(=O)c1ccc(N(Cc2ccc3c(c2)Cc2ccccc2-3)c2nc(-c3ccc(C(F)(F)F)cc3)cs2)cc1
78
O=C(O)CCNC(=O)c1ccc(CN(c2ccc(C3=CCCCC3)cc2)c2nc(-c3ccccc3)cs2)cc1
130
O=C(O)CCNC(=O)c1ccc(CN(c2ccc3c(c2)CCC3)c2nc(-c3ccc(Cl)c(Cl)c3)cs2)cc1
99
CC(C)(C)c1ccc(-c2csc(N(Cc3ccc(C(=O)NCCC(=O)O)cc3)c3ccc(C(C)(C)C)cc3)n2)cc1
315

The measured IC50 associated with Cc1cc(N(Cc2ccc(C(=O)NCCC(=O)O)cc2)c2nc(-c3ccc(C(F)(F)F)cc3)cs2)ccc1C(C)C reads 119

For this compound ( O=C(O)CCNC(=O)c1ccc(CN(c2ccc(OC(F)(F)F)cc2)c2nc(-c3ccc(C(F)(F)F)cc3)cs2)cc1 ), measured IC50 is 92
